# Subject Of Test: T1, factor VIIIa (human, UniProt P00451 20-2351)
# T1 sequence (looked up): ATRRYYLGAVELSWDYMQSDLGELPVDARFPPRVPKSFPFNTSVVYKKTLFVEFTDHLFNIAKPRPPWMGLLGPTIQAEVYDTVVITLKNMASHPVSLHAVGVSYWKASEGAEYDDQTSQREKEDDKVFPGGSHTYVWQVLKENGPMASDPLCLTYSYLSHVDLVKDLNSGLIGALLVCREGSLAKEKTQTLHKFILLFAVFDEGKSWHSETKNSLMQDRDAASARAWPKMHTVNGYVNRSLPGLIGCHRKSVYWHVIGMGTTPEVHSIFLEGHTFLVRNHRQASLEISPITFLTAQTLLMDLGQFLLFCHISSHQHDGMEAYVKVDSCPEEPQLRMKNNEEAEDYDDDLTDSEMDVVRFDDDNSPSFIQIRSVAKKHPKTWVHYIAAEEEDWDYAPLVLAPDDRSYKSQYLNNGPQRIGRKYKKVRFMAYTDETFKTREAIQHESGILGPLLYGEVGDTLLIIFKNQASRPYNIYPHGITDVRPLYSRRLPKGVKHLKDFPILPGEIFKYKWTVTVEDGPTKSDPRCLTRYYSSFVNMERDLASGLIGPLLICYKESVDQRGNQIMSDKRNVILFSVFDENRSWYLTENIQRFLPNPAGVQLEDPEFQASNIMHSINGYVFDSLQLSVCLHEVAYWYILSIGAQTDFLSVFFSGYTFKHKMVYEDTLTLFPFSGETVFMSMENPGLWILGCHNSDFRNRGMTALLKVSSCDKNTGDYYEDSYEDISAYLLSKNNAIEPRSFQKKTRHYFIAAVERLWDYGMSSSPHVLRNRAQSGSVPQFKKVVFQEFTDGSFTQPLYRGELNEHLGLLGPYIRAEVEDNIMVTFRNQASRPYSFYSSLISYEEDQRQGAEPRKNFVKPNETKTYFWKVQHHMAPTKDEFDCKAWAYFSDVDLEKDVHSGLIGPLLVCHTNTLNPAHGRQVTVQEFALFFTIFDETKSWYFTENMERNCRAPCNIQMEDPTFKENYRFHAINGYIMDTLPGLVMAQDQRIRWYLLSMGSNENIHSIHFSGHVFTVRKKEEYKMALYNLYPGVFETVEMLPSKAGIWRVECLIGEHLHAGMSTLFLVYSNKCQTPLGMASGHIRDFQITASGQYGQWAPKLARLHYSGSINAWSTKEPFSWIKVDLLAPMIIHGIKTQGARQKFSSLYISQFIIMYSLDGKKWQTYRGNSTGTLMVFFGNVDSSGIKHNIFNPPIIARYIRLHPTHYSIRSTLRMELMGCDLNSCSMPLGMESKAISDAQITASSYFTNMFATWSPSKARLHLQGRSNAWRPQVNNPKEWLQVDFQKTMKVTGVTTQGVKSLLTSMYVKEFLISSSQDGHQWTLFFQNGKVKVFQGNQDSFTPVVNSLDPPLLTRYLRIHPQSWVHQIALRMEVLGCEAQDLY
# Protocol Notes: peptide competition assay: inhibition of factor X activation by IXa with VIIIa and phospholipid
Parameter: pIC50
Keep it numeric: pIC50 is minus log10 of the concentration in mol/L.

Guide cases for pIC50, answers given:
{"columns": ["Binder", "pIC50"],
 "data": [
  ["LVYRAT [P-4352 SEQ ID NO: 7 (LVYRAT)]", 4.88],
  ["LVDQAT [P-4353 SEQ ID NO: 8 (LVDQAT)]", 5.03]
]}

get_value(item= DGDQCESNPCLNGGSCKDDINSYECWCPFGFEGKNCELD (other, UniProt P00740 93-131, looked up, domain: EGF1 Domain) [EGF1 Domain] , readout=pIC50) returns 4.92
